Reported pIC50 against UniProt P06211, gathered from multiple publications, appears below.
Biological target: UniProt P06211
Sequence (P06211 whole entry): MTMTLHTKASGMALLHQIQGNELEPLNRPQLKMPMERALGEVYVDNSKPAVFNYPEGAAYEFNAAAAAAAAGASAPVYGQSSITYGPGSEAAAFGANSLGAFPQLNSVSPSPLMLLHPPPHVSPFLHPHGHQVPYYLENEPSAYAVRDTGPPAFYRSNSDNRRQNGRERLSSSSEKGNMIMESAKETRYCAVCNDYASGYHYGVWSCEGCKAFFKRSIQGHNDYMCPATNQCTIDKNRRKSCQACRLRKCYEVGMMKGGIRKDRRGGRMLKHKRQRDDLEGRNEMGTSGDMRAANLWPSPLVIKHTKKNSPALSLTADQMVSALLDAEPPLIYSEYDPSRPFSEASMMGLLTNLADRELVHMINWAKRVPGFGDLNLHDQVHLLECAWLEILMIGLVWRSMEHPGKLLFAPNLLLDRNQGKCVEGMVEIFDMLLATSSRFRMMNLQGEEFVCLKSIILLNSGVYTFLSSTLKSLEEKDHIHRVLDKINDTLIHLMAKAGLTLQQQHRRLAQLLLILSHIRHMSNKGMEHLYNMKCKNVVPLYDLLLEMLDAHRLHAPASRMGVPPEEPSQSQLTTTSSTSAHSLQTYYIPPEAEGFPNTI
pIC50: −log10 of the molar value.
Metric: pIC50

>  <Compound>
Oc1ccc2c(c1)CC1(C2)C(c2ccccc2)=Cc2ccccc21 (stereo unspecified)

>  <Experimental Target>
UniProt P06211

>  <pIC50>
6.94

$$$$
>  <Compound>
Oc1cccc(C2=Cc3cc(O)ccc3C23Cc2ccccc2C3)c1

>  <Experimental Target>
UniProt P06211

>  <pIC50>
7.47

$$$$
>  <Compound>
Oc1ccc(C2COc3ccccc3C2)cc1 (stereo unspecified)

>  <Experimental Target>
UniProt P06211

>  <pIC50>
5.12

$$$$
>  <Compound>
O=Cc1cc(O)cc2nc(-c3ccc(O)cc3)oc12

>  <Experimental Target>
UniProt P06211

>  <pIC50>
5.65

$$$$

A. Oc1ccc(C2COc3cc(O)ccc3C2)cc1 (racemic)
B. Oc1ccc(C2=COc3cc(O)ccc3C2)cc1
Q: Select one. Lower pIC50: A or B Let me know the label of the one you choose.
Ans: A
(A: 5.78, B: 6.63)
